experiment: yeast display, Sf9 membrane polyspecificity reagent, FACS + sequencing; frameworks hold sequencing errors
quantity-name: polyreactivity (PSR sort gate)

These solved cases illustrate the format of a correct answer.
{"residue-string": "QVQLVESGGGLVQAGGSLRLSCAASGSIFNYNMGWYRQAPGKERELVAAVSTNYADSVKGRFTISRDNAKNTVYLQMNSLKPEDTAVYYCGVTPEKSGDEYDYWGQGTQVTVSS", "quantity-name": "polyreactivity (PSR sort gate)", "result": "low polyreactivity"}
{"residue-string": "QVQLVESGGGLVQAGGSLRLSCAASGRIFLWNAMGWYRPAPGKERELVAGISWRGSSTYYADSVKGRFTISRDNAKNTVYLQMNSLKPEDTAVYYCAARTRGGRGYGMYYWGQGTQVTVSS", "quantity-name": "polyreactivity (PSR sort gate)", "result": "high polyreactivity"}
{"residue-string": "QVQLVESGGGLVQAGGSLRLSCAASGRIFRVYAMGWSRQAPGKERELVAAIRWTGGSTYYADSVKGRFKISRDNAKNTVYIQIHSLKAEDTAVSYCAAGRYYSDGSRTIYDYWGQGTQVTGSS", "quantity-name": "polyreactivity (PSR sort gate)", "result": "high polyreactivity"}
{"residue-string": "QVQLLESGGGLVQAGGSLRLSCAASGSIFNRYAMGWYRQAPGKERELVAAISSTGSTYYADSVKGRFTISRDNAKNTVYLQMNSLKPEDTAVYYCNAEATHDWLRVDTYEDWGQGTQVTVSS", "quantity-name": "polyreactivity (PSR sort gate)", "result": "low polyreactivity"}

# context switch: different sequence, same polyreactivity (PSR sort gate)
Given item QVQLVESGGGLVQAGGSLRLSCAASGSLFTSYAMGWYRQAPGKERELVAAIRESGGRTYYADSVKGRFTISRDNAKNTVYLQMNSLKPEDTAVYYCAADSRVGFGRLYGYWGQGTQVTVSS , the value recorded as its polyreactivity (PSR sort gate) is high polyreactivity

###

assay: yeast display, Sf9 membrane polyspecificity reagent, FACS + sequencing; frameworks hold sequencing errors
quantity-name: polyreactivity (PSR sort gate)

These solved cases illustrate the format of a correct answer.
{"residue-string": "QVQLVESGGGLVQAGGSLRLSCAASGYIFHRYAMGWYRQAPGKEREFVAAIRWSGGSTYYADSVKGRFTISRDNAKNTVYLQMNSLKPEDTAVYYCAADKYVLGYYYGQYDYWGQGTQVTVSS", "quantity-name": "polyreactivity (PSR sort gate)", "result": "low polyreactivity"}
{"residue-string": "QVQLVESGGGFVQAGGSLRLSCAASGGTFYRYAMGWYRQAPGKERELVAVISRGLRTNYADSVKGRFTISRDNAKNTVYFQMNSLQPEDTAVYYCAAHQYRVYRHGFDYWGQGTQVTVSS", "quantity-name": "polyreactivity (PSR sort gate)", "result": "high polyreactivity"}
{"residue-string": "QVQLVESGGGLVQAGGSLRLSCAASGRTFRRYTMGWYRQAPGKERELVATISSGGSTYADSVKGRFTISRDNAKNTVYLQMNSLKPEDTAVYYCAARYDVAWYSKRYSWGQGTQVTVSS", "quantity-name": "polyreactivity (PSR sort gate)", "result": "high polyreactivity"}
{"residue-string": "QVQLVESGGGLVQAGGSLRLSSAASGRIFRRNTMGWYRQAPGKERELVAAITSSGGSTYADSVKGRFTISRDNAKNTVYLQMNSLKPEDTAVYYCATYVAYHRGYRTYDHWGQGTQVTVSS", "quantity-name": "polyreactivity (PSR sort gate)", "result": "low polyreactivity"}

# context switch: different sequence, same polyreactivity (PSR sort gate)
Given item QDHLVESGGGLVQAGGSLRLSCAASGITFVYYYMGWYRTAPGKERELVAAISSDGSTYYADSVKGRFTISRDNAKNTVYLQMNSLKPEDTAVYYCNAVAIVPYFYVVYDIFDYWGQVTQVTVSS , the value recorded as its polyreactivity (PSR sort gate) is low polyreactivity

###

assay: yeast display, Sf9 membrane polyspecificity reagent, FACS + sequencing; frameworks hold sequencing errors
quantity-name: polyreactivity (PSR sort gate)

{"residue-string": "QVQLVESGGCLVQAGGSLRLSSAASGFIIPGNPMCWYRQAPAKERDLVAAITSGGSTKYADSVKGRITISRDNAKNTDYLQMNSLKPEDTAVYYCAARGFPPGDEWHPYDYWGQGTQVTVSS", "result": "low polyreactivity"}
{"residue-string": "QVQLVESGGGLVQAGGSLRLSCAASGRTFGGNAMGWYRQAPGKEWELVAAIDQSGGSTYYADSVKGRFTISRDNAKNTVYLQMISLKPEDTAVYYCARKTYSYFGHYYFWGQGTQVTVSS", "result": "low polyreactivity"}
{"residue-string": "QVQLVESGGGLVQAGGSLRLSCAASGLIFYYYAMGWYRQAPGKERELVAAITGSGGSTYYADSVKGRFTISRDNAKNTVYLQMNSLKPEDTAVYYCAADGIYTYEYWGQGTQVTVSS", "result": "low polyreactivity"}
{"residue-string": "QVQLVESGGGLVQAGGSLRLSCADSGRIFYSYTRGWYRPAPGKERELVAAIRKSGGRTYYADSVKGRFTISRDNAKNTVYLQMNSLKPEDTAVYYCATTNYELSYYYWGQGTQVTVSS", "result": "high polyreactivity"}
{"residue-string": "QVQLVESGGGLVQAGGSLRLSCAASGSTLVRYALGLSRQAPGKERELVAAISRSGSSTYYADSVKGRFTISRDIAKNTVYLQMNSLKPEDTAVYYCATDRYPTTPYYNYRFGYWGQGTQVTVSS", "result": "high polyreactivity"}
{"residue-string": "QVQLVESGGGLVQAGGSLRLSCAASGRIFDDNAMGWYRQAPGKERELVADINNATSTNYADSVKGRFTISRDNAKNTVYLQMNSLKPEDTAVYYCAADDYIYYRILGDSFVYKAYGYWGQGTQVTVSS", "result": "low polyreactivity"}
{"residue-string": "QVQLVESGGGLVQAGGSLRLSCAASGRTFGYNAMGWYREAPGKERELVPAITTSGGSTYYADSVKGRFTISRDNAKNSVYLQMNSRKPEDTAVYYCAADYSFFYRYTWLVYIFDYDYWGQGTQVTVSS", "result": "low polyreactivity"}
{"residue-string": "QVQLVESGGGLVQAGGSLRLSCAASGRTFKFYAMGWYRQAPGKERELVARITSNSGSTYYADSVKGRFTISRDTAKNTVYLQMTSLKPEDTAVYYCAVRGTLGSYWYTYYYWGQGTQVTVSS", "result": "high polyreactivity"}

Given item QVQLVESGGGLVQAGGSLRLSCAASGRIFTYNVMGWYRQAPGKERELVAAIYSSGVRTSYADSVKGRFTISRDNAKNTVYLHMNSLKPEDTALYYCAADKRYHYGLLHDPSYYYDYWGQGTQVTVSS , the value recorded as its polyreactivity (PSR sort gate) is low polyreactivity

Given item QVQLVESGGGLVQAGGSLRLSCAASGRIISYYAMRWYRQAPGKERELVAAITSAGGTNYADSVKARFTISRDNAKNTVYLQMNSLKPEDTAVYYCAADLYDWPLAWWEYFYWGQGTQVTVSS , the value recorded as its polyreactivity (PSR sort gate) is low polyreactivity

Given item QVQLVESGGGLVQAGGSLRLSCAASGRTFEYYAMGWYRQAPGKERELVAAIDSGGSTNYADSVKGRFTISRDNAKNTVYLQMNSLKPEDTAVYYCATEVDQNYNYDYWGQCTQVTVSS , the value recorded as its polyreactivity (PSR sort gate) is low polyreactivity

###

assay: yeast display, Sf9 membrane polyspecificity reagent, FACS + sequencing; frameworks hold sequencing errors
quantity-name: polyreactivity (PSR sort gate)

These solved cases illustrate the format of a correct answer.
{"residue-string": "QVQLVESGGGLVQAGGSLRLSCAASGLTINPNAMGWYRPAPGKERELVAAIDWSGGSTYCADSVKGRFTISRDNAKNTVYLQMNSLKPEDTAVYYSAADPPDRLFLYDYWGQGTQVTVSS", "polyreactivity (PSR sort gate)": "low polyreactivity"}
{"residue-string": "QVQLVESGGGLVQAGGSLRLSCAASGNTFDIYAMGWYRQAPGKERELVAAISSSGGSTYYADSVKGRFTISRDNAKNTVYLQMNSLKPEDTAVYYFNARHRQWARGYWGQGTQVTVSS", "polyreactivity (PSR sort gate)": "high polyreactivity"}
{"residue-string": "QVQLVESGGGLVQAGGSLRLSCAASGSTLTLYAMGWYRQARGKERELVAAIDWTGGSTYYADSVKGRFTISRDNAKNTVYLQMNSLKPEDTAVYYCAAHSFTEGYWYEYWGQGTQVTVSS", "polyreactivity (PSR sort gate)": "high polyreactivity"}
{"residue-string": "QVQLVESAGGLVQAGGSLRLSCDASGSIFRYYDMGWYRQAPGKERELVAAITYYGGGTYYADSVKGRFTISRDNAKNTVYLQMNSLKAEDTAVYYCAVRRVGSIYMDRYRYVVADYVYWGQGTQVTVSS", "polyreactivity (PSR sort gate)": "low polyreactivity"}

# context switch: different sequence, same polyreactivity (PSR sort gate)
Given item QVQIVESGGGLVQAGGSLRLSCAASGNNFRYNTMGWYRQAPGKERELVAVITRRGSSTYYADSVKGRCTISRDNAKNTVYLQMNRLKPEDTAVYYCAAAPYYVTLVTRRDYWGQGTQVTVSS , the value recorded as its polyreactivity (PSR sort gate) is high polyreactivity
